Target: UniProt P26433
Sequence (P26433 29-831): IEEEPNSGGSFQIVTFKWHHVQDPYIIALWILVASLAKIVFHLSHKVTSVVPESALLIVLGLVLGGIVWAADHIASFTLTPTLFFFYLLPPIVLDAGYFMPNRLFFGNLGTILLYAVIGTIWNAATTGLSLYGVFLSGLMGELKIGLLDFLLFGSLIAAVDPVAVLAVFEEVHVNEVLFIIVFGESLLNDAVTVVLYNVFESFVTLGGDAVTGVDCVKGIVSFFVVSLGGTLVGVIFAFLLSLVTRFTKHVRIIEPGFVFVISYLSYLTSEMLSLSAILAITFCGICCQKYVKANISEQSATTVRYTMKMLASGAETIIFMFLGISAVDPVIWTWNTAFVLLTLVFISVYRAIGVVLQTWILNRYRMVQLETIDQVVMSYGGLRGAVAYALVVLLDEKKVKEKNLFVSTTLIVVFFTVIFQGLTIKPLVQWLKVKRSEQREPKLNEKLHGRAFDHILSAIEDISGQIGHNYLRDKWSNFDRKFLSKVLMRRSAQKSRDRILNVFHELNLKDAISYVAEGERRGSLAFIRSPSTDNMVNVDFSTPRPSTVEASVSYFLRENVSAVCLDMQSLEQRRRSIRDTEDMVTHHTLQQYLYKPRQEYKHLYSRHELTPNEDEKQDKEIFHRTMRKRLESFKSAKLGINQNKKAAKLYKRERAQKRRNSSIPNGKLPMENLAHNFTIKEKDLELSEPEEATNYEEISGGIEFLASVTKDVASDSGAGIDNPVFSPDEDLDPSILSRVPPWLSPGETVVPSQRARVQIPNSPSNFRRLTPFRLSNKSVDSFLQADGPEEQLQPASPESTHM
Experiment: Recovery of intracellular pH (pHi) after acidification, BCECF fluorescence, NHE inhibition
Conditions: pH recovery recorded 3 minutes for NHE3; bicarbonate-free conditions
pIC50: −log10 of the molar value. Where a name gives a salt, the structure may show the parent alone.
Label true (1) when pIC50 >= 6; otherwise false (0).

compound	target_or_test_system	classification
CCNC(=O)NS(=O)(=O)c1ccc(Oc2c(F)cc(/C=C(\C)C(=O)N=C(N)N)cc2F)cc1 [Example 9, HCl salt]	UniProt P26433	true (1)
C/C(=C\c1ccc(Nc2ccc(S(=O)(=O)N3CCN(C)CC3)cc2)cc1)C(=O)N=C(N)N.Cl.Cl [Example 12, HCl salt]	UniProt P26433	false (0)
C/C(=C\c1cc(F)c(Oc2ccc(S(=O)(=O)NCCN(C)C)cc2)c(F)c1)C(=O)N=C(N)N.Cl.Cl [Example 6, HCl salt]	UniProt P26433	true (1)

Challenge: # bool: pIC50 of C/C(=C\c1cc(F)c(Oc2ccc(S(=O)(=O)N3CCN(C)CC3)cc2)c(F)c1)C(=O)N=C(N)N [Example 7, trifluoroacetate] >= 6
Response given: false (0)

Value source: patent US6399824B1
